assay: Aqueous solubility of compound at pH 2 incubated for 24 hrs by HPLC-UV spectroscopy; type: physicochemical; details: buffer
measured-attribute: solubility at 24 h (µg/mL)
Entry rule: numbers only, all in µg/mL.

Problem: Looking for the measured solubility at 24 h of COc1ccc(NS(=O)(=O)c2ccc3c(c2)c2cc(CN4CCN(C)CC4)ccc2n3C)c(OC)n1 , can you help?
Solution: 119

---

assay: Solubility of compound in water; assay type: physicochemical
measured-attribute: solubility (µg/mL)
Entry rule: numbers only, all in µg/mL.

Problem: Looking for the measured solubility of O=c1nc(N2CCN(CC3CCCCC3)CC2)sc2c([N+](=O)[O-])cc(C(F)(F)F)cc12 , can you help?
Solution: 0.01
